- Test system: P388 leukemia ip, CD2F1 mice, survival T/C
- Assay Method Text: NCI In Vivo Anticancer Drug Screen. Data for tumor model P388 Leukemia (intraperitoneal) in CD2F1 (CDF1) mice
- Conditions: endpoint: median survival time; dose: 25.0 mg/kg/injection; schedule: Q01DX009 (ip); vehicle: saline with Tween-80
Inconclusive results and toxic doses are left out. How the source made its calls: active means survival T/C of 150% or more; inactive means T/C below 125% in these data.
In this exercise, the only acceptable responses are active, inactive

Compound	Assigned Class
CCCCCCC(=O)/C=C/c1cccc(OCc2ccc([N+](=O)[O-])cc2)c1	inactive
CC(C)COC1CC(C)(C)c2c(-c3ccccc3)nn(-c3ccccc3)c2O1 (stereo unspecified)	inactive
Cc1cc(N=Nc2ccncc2C)ccc1N	inactive
CCCOSSOCCC	inactive
CC1CC[N-]CC1.CC1CC[N-]CC1.CC1CC[N-]CC1.CC1CC[N-]CC1.[Cl][Rh][Cl]	inactive
C/C(=N/NC(N)=S)C1CCC2C3CCC4CCCCC4(C)C3CC(O)C12C (stereo unspecified)	inactive

Record request — test call for CN(C)C(=S)/N=c1\ss/c(=N/C(=S)N(C)C)n1-c1ccc([N+](=O)[O-])cc1
inactive

Record request — test call for O=C(NC1c2ccccc2CCc2ccccc21)C(F)(F)F
inactive

Record request — test call for COc1ccc(C(=O)c2ccccc2)cc1OC
inactive

Record request — test call for O=C1NC(=O)C2(CCCc3ccc(N(CCCl)CCCl)cc32)N1 (stereo unspecified)
active

Record request — test call for CCN(CC)[P+](C1=C(Cl)C(=O)C(Cl)=C(Cl)C1=O)(N(CC)CC)N(CC)CC
inactive

----------
- Tested on: P388 leukemia ip, CD2F1 mice, survival T/C
- Assay Method Text: NCI In Vivo Anticancer Drug Screen. Data for tumor model P388 Leukemia (intraperitoneal) in CD2F1 (CDF1) mice
- Conditions: endpoint: median survival time; dose: 50.0 mg/kg/injection; schedule: Q01DX009 (ip); vehicle: saline with Tween-80; higher = longer survival
Toxic doses and inconclusive results are not listed.
Property Name: T/C

Solved cases (2 shown):
Compound	Reported Value
CSCCC(N)C(=O)O (stereo not given)	107 % of control
CC1CC[N-]CC1.CC1CC[N-]CC1.CC1CC[N-]CC1.CC1CC[N-]CC1.[Cl][Rh][Cl]	104 % of control

Which measured T/C belongs to COC(=O)CCCc1ccc(OC)c(OC)c1 , tested on P388 leukemia ip, CD2F1 mice, survival T/C?
95 % of control

Which measured T/C belongs to O=C(Nc1cccc2ccccc12)Oc1cccc2cccnc12 , tested on P388 leukemia ip, CD2F1 mice, survival T/C?
86 % of control

Which measured T/C belongs to O=C(c1ccccc1)N1C=CN(C(=O)c2ccccc2)C1c1nccn1C(=O)c1ccccc1 , tested on P388 leukemia ip, CD2F1 mice, survival T/C?
105 % of control

Which measured T/C belongs to CC(=O)Nc1ccc(/C=N/NC(=O)c2ccc(C)cc2)cc1 , tested on P388 leukemia ip, CD2F1 mice, survival T/C?
86 % of control

Which measured T/C belongs to Cc1ccc(NC(=O)NNC(=O)CNC(=O)Nc2n[nH]c(=S)s2)c(C)c1 , tested on P388 leukemia ip, CD2F1 mice, survival T/C?
92 % of control

Which measured T/C belongs to CC(=O)N1CCc2cc(N)ccc21 , tested on P388 leukemia ip, CD2F1 mice, survival T/C?
95 % of control

Which measured T/C belongs to O=S1(=O)CC(N2CCCCC2)C2=C(O1)c1ccccc1N(c1ccccc1)C2 (stereo not given) , tested on P388 leukemia ip, CD2F1 mice, survival T/C?
97 % of control

Data provenance: PubChem BioAssay AID330
